- test target: RAC-beta serine/threonine-protein kinase (Homo sapiens) (UniProt P31751);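 also: reported figure is the mean percent inhibition of AKT2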
- Sequence (P31751 whole entry): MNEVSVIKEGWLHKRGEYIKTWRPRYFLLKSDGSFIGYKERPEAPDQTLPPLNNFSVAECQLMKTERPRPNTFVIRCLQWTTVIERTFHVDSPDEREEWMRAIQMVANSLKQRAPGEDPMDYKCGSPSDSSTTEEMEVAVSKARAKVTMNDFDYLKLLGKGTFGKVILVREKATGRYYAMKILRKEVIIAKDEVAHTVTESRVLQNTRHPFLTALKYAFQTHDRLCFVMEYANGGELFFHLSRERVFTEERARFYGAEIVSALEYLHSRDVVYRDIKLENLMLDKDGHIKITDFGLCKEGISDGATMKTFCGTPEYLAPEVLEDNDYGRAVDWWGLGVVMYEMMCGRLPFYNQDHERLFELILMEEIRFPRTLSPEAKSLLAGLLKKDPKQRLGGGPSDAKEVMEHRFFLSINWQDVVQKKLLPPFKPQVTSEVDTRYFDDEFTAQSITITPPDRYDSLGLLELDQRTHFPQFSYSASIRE
- reported conditions: at 0.1 µM
Quick reference: inhibition of the listed items.
readout: inhibition (%)

smiles_notation=CS(=O)(=O)Nc1cccc(-c2ccc3c(NC(=O)C4CC4)n[nH]c3c2)c1 reported_value=0.26
smiles_notation=COc1cc2ncn(-c3cc(OCc4ccccc4S(C)(=O)=O)c(C#N)s3)c2cc1OC reported_value=2.07
smiles_notation=Oc1cccc(-c2nc(-c3ccccc3)[nH]c2-c2ccncc2)c1 reported_value=2.18
smiles_notation=Nc1ccc(C#Cc2cncnc2Nc2ccc(OCc3cccc(F)c3)c(Cl)c2)cc1 reported_value=1.06
smiles_notation=NS(=O)(=O)c1ccc(-c2cc3ccncc3cc2OCc2ccccc2)cc1 reported_value=1.46
smiles_notation=Cc1ccc2c(-c3ccnc(Nc4ccc5c(c4)OCCO5)n3)c(-c3ccc(C(F)(F)F)cc3)nn2n1 reported_value=1.5
smiles_notation=NS(=O)(=O)c1cccc(Nc2cc(-c3ccc(F)cc3)n[nH]2)c1 reported_value=3.5
smiles_notation=Cc1cc(O)cc(C)c1/C=C/c1cncc(C(=O)N(C)C)c1 reported_value=2.14
smiles_notation=NS(=O)(=O)c1cccc(-c2cc3ccncc3cc2OCc2ccccc2)c1 reported_value=1.79
smiles_notation=COC(=O)c1ccc2c(c1)C(=Cc1cc(Br)c(O)c(Br)c1)C(=O)N2 reported_value=0.67
smiles_notation=OCc1ccc(-c2nc(-c3ccccn3)c(-c3ccc4c(c3)OCO4)[nH]2)cc1 reported_value=2.08
smiles_notation=C[C@@H](Oc1cc(-n2cnc3ccc(OC[C@@H](O)CO)cc32)sc1C(N)=O)c1ccccc1Cl reported_value=-0.48
smiles_notation=NS(=O)(=O)c1ccc(Nc2cc(-c3cccc(O)c3)n[nH]2)cc1 reported_value=1.64

* * *

- test target: Serine/threonine-protein kinase PAK 3 (Homo sapiens);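 also: reported percentage is a mean inhibition value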
- reported conditions: at 1 µM
Recorded inhibition, one value per entry.
readout: inhibition

smiles_notation=C[C@@H](Oc1cc(-n2cnc3ccc(OC[C@@H](O)CO)cc32)sc1C(N)=O)c1ccccc1Cl test_target="Serine/threonine-protein kinase PAK 3 (Homo sapiens)" readout=inhibition reported_value=-0.49%
smiles_notation=COc1cc(/C=N/Nc2ncnc3c2cnn3C(C)C)ccc1O test_target="Serine/threonine-protein kinase PAK 3 (Homo sapiens)" readout=inhibition reported_value=1.26%
smiles_notation=Cc1cc(O)cc(C)c1/C=C/c1cncc(C(=O)N(C)C)c1 test_target="Serine/threonine-protein kinase PAK 3 (Homo sapiens)" readout=inhibition reported_value=2.83%
smiles_notation=NS(=O)(=O)c1ccc(-c2cc3ccncc3cc2OCc2ccccc2)cc1 test_target="Serine/threonine-protein kinase PAK 3 (Homo sapiens)" readout=inhibition reported_value=4.21%
smiles_notation=Oc1cccc(-c2nc(-c3ccccc3)[nH]c2-c2ccncc2)c1 test_target="Serine/threonine-protein kinase PAK 3 (Homo sapiens)" readout=inhibition reported_value=3.48%
smiles_notation=Nc1nccc(C#Cc2cncnc2Nc2ccc(OCc3cccc(F)c3)c(Cl)c2)n1 test_target="Serine/threonine-protein kinase PAK 3 (Homo sapiens)" readout=inhibition reported_value=3.37%
smiles_notation=NC(=O)c1cccc(Nc2nccc(Nc3cccc(F)c3)n2)c1 test_target="Serine/threonine-protein kinase PAK 3 (Homo sapiens)" readout=inhibition reported_value=2.37%
smiles_notation=COc1cccc(-n2nc(C)c3c(N/N=C(\C)c4ccncc4)ncnc32)c1 test_target="Serine/threonine-protein kinase PAK 3 (Homo sapiens)" readout=inhibition reported_value=2.49%
smiles_notation=N#Cc1c(NC(=O)c2ccccc2F)sc2c1CCCC2 test_target="Serine/threonine-protein kinase PAK 3 (Homo sapiens)" readout=inhibition reported_value=-1.16%
smiles_notation=CN(C)C(=O)O[C@@H]1CN[C@@H](C#Cc2cc3ncnc(Nc4ccc(OCc5cccc(F)c5)c(Cl)c4)c3s2)C1 test_target="Serine/threonine-protein kinase PAK 3 (Homo sapiens)" readout=inhibition reported_value=-0.38%
smiles_notation=[O-][S+]1CCN(Cc2ccc(-c3ccc4ncnc(Nc5ccc(OCc6ccccc6)c(Cl)c5)c4c3)o2)CC1 test_target="Serine/threonine-protein kinase PAK 3 (Homo sapiens)" readout=inhibition reported_value=2.19%
smiles_notation=CS(=O)(=O)CCNCc1nc(-c2ccc3ncnc(Nc4ccc(OCc5cccc(C(F)(F)F)c5)cc4)c3c2)cs1 test_target="Serine/threonine-protein kinase PAK 3 (Homo sapiens)" readout=inhibition reported_value=5.04%
smiles_notation=Cc1cc(-c2ccccn2)cc(C)c1/C=C/c1cncc(-c2nn[nH]n2)c1 test_target="Serine/threonine-protein kinase PAK 3 (Homo sapiens)" readout=inhibition reported_value=5.22%

* * *

- System: Tyrosine-protein kinase ABL1 (Homo sapiens), P00519 [H396P]
- reported conditions: at 1 µM
readout: inhibition (%)

smiles_notation=Cc1ccc(C(=O)NC2CC2)cc1-c1ccc2[nH]ncc2c1 readout=inhibition reported_value=1.02
smiles_notation=Cc1cc(O)cc(C)c1/C=C/c1cncc(C(=O)N(C)C)c1 readout=inhibition reported_value=8.17
smiles_notation=COc1ccc2ncnc(Nc3ccc(OCc4ccccc4)cc3)c2c1 readout=inhibition reported_value=4.61
smiles_notation=NS(=O)(=O)c1cccc(Nc2cc(-c3ccc(F)cc3)n[nH]2)c1 readout=inhibition reported_value=15.4
smiles_notation=NS(=O)(=O)c1ccc(NC=C2C(=O)Nc3ccc4ncsc4c32)cc1 readout=inhibition reported_value=46.7
smiles_notation=c1ccc(Cc2nc3ccc(Nc4ncnc5ccccc45)cc3[nH]2)cc1 readout=inhibition reported_value=3.84
smiles_notation=CCn1c(-c2nonc2N)nc2c(C#CC(C)(C)O)nc(OCCNC)cc21 readout=inhibition reported_value=4.85
smiles_notation=[O-][S+]1CCN(Cc2ccc(-c3ccc4ncnc(Nc5ccc(OCc6ccccc6)c(Cl)c5)c4c3)o2)CC1 readout=inhibition reported_value=2.74

* * *

- test target: Calcium/calmodulin-dependent protein kinase type IV (Homo sapiens);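 also: each value is a mean inhibition of CAMK4, part of the GSK PKIS kinase screening panel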
- reported conditions: at 0.1 µM
readout: inhibition (%)

smiles_notation=Cc1ccc2c(-c3ccnc(Nc4cccc(C(F)(F)F)c4)n3)c(-c3ccccc3)nn2n1 readout=inhibition reported_value=1.16
smiles_notation=COC(=O)c1cncc(/C=C/c2c(C)cc(O)cc2C)c1 readout=inhibition reported_value=-2.74
smiles_notation=N#Cc1cccc(Nc2nccc(-c3cnn4ncccc34)n2)c1 readout=inhibition reported_value=-1.28
smiles_notation=Cc1ccc(O)cc1Nc1ccnc2ccc(S(C)(=O)=O)cc12 readout=inhibition reported_value=-1.1
smiles_notation=COc1cc(Nc2nccc(-c3cnn4ncccc34)n2)cc(OC)c1 readout=inhibition reported_value=1.42
smiles_notation=COC(=O)c1ccc2c(c1)C(=Cc1cc(Br)c(O)c(Br)c1)C(=O)N2 readout=inhibition reported_value=-0.49
smiles_notation=COc1cccc(-n2ncc3c(N/N=C/c4ccc(S(C)(=O)=O)cc4)ncnc32)c1 readout=inhibition reported_value=2.57

* * *

- Test system: Proto-oncogene tyrosine-protein kinase receptor Ret (Homo sapiens), P07949 [V804L]
- Sequence (P07949 whole entry V804L): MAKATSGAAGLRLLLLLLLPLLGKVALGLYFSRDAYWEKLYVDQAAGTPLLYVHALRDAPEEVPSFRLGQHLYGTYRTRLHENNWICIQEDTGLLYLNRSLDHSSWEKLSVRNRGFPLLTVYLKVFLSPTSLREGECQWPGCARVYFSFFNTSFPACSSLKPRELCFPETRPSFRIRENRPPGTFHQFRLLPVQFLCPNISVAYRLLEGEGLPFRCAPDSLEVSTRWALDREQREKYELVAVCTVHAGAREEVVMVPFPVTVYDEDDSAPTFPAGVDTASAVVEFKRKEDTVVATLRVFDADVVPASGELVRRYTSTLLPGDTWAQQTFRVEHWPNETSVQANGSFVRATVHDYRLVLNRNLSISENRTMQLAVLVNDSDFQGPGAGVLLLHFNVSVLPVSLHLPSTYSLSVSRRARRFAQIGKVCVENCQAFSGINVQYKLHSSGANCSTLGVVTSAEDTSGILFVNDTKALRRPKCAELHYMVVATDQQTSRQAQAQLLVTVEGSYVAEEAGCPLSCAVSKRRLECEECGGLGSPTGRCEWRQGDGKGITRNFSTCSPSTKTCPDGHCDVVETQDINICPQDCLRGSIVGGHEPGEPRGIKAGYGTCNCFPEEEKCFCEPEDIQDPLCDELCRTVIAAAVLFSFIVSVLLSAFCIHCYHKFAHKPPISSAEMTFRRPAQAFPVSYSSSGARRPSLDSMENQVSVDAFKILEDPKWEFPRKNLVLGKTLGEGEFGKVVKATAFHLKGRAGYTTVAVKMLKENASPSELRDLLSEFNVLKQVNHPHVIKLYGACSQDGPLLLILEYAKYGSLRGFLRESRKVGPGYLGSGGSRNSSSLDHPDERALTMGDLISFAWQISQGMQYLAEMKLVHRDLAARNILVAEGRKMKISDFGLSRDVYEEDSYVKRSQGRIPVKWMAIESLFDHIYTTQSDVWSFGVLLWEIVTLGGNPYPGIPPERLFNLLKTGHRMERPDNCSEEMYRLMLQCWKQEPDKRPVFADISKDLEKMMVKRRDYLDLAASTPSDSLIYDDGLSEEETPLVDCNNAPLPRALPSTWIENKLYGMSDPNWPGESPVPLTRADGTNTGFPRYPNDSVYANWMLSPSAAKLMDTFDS
- reported conditions: at 1 µM
readout: inhibition (%)

smiles_notation=NC(=O)c1cccc(Nc2nccc(Nc3cccc(F)c3)n2)c1 readout=inhibition unit_name=% reported_value=13.8
smiles_notation=NS(=O)(=O)c1ccc(N/N=C2\C(=O)Nc3ccc(Cl)cc32)cc1 readout=inhibition unit_name=% reported_value=41.6
smiles_notation=CS(=O)(=O)Nc1cccc(-c2ccc3c(NC(=O)C4CC4)n[nH]c3c2)c1 readout=inhibition unit_name=% reported_value=-1.31
smiles_notation=[O-][S+]1CCN(Cc2ccc(-c3ccc4ncnc(Nc5ccc(OCc6ccccc6)c(Cl)c5)c4c3)o2)CC1 readout=inhibition unit_name=% reported_value=3.13
smiles_notation=NS(=O)(=O)c1ccc(-c2cc3ccncc3cc2OCc2ccccc2)cc1 readout=inhibition unit_name=% reported_value=5.47
smiles_notation=N#Cc1c(NC(=O)c2ccccc2F)sc2c1CCCC2 readout=inhibition unit_name=% reported_value=2.29

* * *

- test target: Platelet-derived growth factor receptor beta (Homo sapiens) (UniProt P09619);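 also: reported value is the mean percent inhibition of the kinase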
- Sequence (P09619 whole entry): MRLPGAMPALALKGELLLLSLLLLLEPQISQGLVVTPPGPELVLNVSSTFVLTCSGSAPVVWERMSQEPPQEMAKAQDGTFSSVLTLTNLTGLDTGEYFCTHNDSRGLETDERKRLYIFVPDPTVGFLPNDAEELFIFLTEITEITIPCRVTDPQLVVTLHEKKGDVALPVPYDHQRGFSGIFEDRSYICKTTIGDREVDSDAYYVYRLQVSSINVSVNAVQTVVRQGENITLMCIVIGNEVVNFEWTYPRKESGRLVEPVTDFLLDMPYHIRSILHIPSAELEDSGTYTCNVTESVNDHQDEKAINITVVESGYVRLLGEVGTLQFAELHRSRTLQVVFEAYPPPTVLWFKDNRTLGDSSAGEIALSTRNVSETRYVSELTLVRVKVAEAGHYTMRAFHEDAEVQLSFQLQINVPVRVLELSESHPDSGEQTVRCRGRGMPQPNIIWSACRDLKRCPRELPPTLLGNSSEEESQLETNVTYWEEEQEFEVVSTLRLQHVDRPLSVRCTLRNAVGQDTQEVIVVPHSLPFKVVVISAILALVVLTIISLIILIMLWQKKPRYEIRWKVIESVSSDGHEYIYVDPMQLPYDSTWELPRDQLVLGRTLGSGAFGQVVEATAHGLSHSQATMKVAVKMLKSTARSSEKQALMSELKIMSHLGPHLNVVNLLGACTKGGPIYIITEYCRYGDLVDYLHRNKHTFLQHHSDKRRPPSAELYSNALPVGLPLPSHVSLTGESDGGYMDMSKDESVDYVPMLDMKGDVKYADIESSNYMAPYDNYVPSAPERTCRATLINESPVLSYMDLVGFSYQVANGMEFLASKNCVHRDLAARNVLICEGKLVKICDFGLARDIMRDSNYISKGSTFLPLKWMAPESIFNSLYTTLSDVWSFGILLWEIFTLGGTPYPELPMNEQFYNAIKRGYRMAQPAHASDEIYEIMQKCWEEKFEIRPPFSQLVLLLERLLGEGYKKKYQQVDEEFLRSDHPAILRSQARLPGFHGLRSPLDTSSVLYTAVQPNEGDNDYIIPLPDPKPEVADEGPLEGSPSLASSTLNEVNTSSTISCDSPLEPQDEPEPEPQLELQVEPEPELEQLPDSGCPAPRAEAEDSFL
- reported conditions: at 0.1 µM
readout: inhibition

smiles_notation=COc1cc2ncnc(Nc3ccc(C)c(O)c3)c2cc1OC readout=inhibition reported_value=33.2%
smiles_notation=C[C@@H](Oc1cc(-n2cnc3ccc(OCC4CCN(C)CC4)cc32)sc1C(N)=O)c1ccccc1C(F)(F)F readout=inhibition reported_value=56.3%
smiles_notation=CCS(=O)(=O)c1ccc(OC)c(Nc2ncc(-c3cccc(OC)c3)o2)c1 readout=inhibition reported_value=43.7%
smiles_notation=Nc1nccc(C#Cc2cncnc2Nc2ccc(OCc3cccc(F)c3)c(Cl)c2)n1 readout=inhibition reported_value=7.6%
smiles_notation=O=C(Nc1ccc(Oc2ccc3[nH]c(NC(=O)c4ccco4)nc3c2)cc1)Nc1cc(C(F)(F)F)ccc1F readout=inhibition reported_value=12.1%
smiles_notation=COc1ccc(-c2nn3ncccc3c2-c2ccnc(Nc3cccc(C(F)(F)F)c3)n2)cc1 readout=inhibition reported_value=-0.23%
smiles_notation=c1ccc(Nc2ncc(-c3ccccc3)o2)cc1 readout=inhibition reported_value=10.8%
smiles_notation=COC(=O)Nc1nc2cc(Oc3ccc(NC(=O)Nc4cccc(Br)c4)cc3)ccc2[nH]1 readout=inhibition reported_value=17.4%
smiles_notation=CCOc1nccc2c1nc(-c1nonc1N)n2CC readout=inhibition reported_value=7.89%
smiles_notation=Cc1cc(O)cc(C)c1/C=C/c1cncc(C(=O)N(C)C)c1 readout=inhibition reported_value=5.76%
smiles_notation=CC(C)c1ccc(Nc2nccc(-c3cnn4ncccc34)n2)cc1 readout=inhibition reported_value=9.63%
smiles_notation=CN(C)C(=O)O[C@H]1CN[C@H](C#Cc2cc3ncnc(Nc4ccc(OCc5cccc(F)c5)c(Cl)c4)c3s2)C1 readout=inhibition reported_value=2.18%
smiles_notation=Nc1nccc(-c2c(-c3ccc(F)cc3)nn3cc(C(F)(F)F)ccc23)n1 readout=inhibition reported_value=0.39%
smiles_notation=COc1cc2ncn(-c3cc(OCc4ccccc4S(C)(=O)=O)c(C#N)s3)c2cc1OC readout=inhibition reported_value=45.3%
smiles_notation=COc1cccc(-n2nc(C)c3c(N/N=C(\C)c4ccncc4)ncnc32)c1 readout=inhibition reported_value=3.11%
smiles_notation=Cc1ccc(Nc2ccnc(Nc3cccc(C(N)=O)c3)n2)cc1O readout=inhibition reported_value=54.7%
smiles_notation=Cc1nc(-c2ccccc2)n2nc(NCCCN3CCOCC3)ncc12 readout=inhibition reported_value=1.99%
